Test system: Trichoderma virens ATCC 9645
Assay: growth yield (OD600) with compound + IPBC relative to untreated control; higher = less growth inhibition
Settings: compound concentration: 100 uM; IPBC concentration: 200 ng/ml; 40 h
Structures can show the parent of a compound that is named as a salt. Among all 1,300 compounds or so, about 130 (10%) showed an effect of 50% or more. The entries come from a sample that favours strong results as a whole.
MEASUREMENT_TYPE: growth yield
A complete answer gives the number followed by the unit.

# count of solved cases: 2
{"MOLECULE": "CC(Cc1cccc(C(F)(F)F)c1)NCCOC(=O)c1ccccc1 (stereo not drawn) [Benfluorex] + CCCCNC(=O)OCC#CI [3-iodo-2-propynyl butylcarbamate (IPBC)]", "growth yield": "56.4%"}
{"MOLECULE": "Clc1cccc(Cl)c1NC1=NCCN1 [Clonidine hydrochloride] + CCCCNC(=O)OCC#CI [3-iodo-2-propynyl butylcarbamate (IPBC)]", "growth yield": "92.9%"}

Now examine the next entry.
# input Look up and report measured growth yield for this entry: CSc1nc2cc(Cl)c(Oc3cccc(Cl)c3Cl)cc2[nH]1 [Triclabendazole] + CCCCNC(=O)OCC#CI [3-iodo-2-propynyl butylcarbamate (IPBC)]
# output 66.7%
